Molecular target: HLA-A*02:01
Assay: IEDB peptide-MHC binding, purified MHC/competitive/fluorescence; filed as Kd, often an IC50 or EC50 that approximates it; bounds were set here for any values at or beyond the usual limits of such assays
Conditions: source organism: Escherichia coli B171
pKd: −log10 of the molar value.
assay.readout: pKd

[[record]]
monomer_sequence = "VQYRGLYQI"
value_measured = 6.90


---

Molecular target: HLA-A*03:01
Assay: IEDB peptide-MHC binding, purified MHC/direct/fluorescence; filed as Kd, often an IC50 or EC50 that approximates it; bounds were set here for any values at or beyond the usual limits of such assays
Conditions: source organism: Camelpox virus M-96
pKd: −log10 of the molar value.
assay.readout: pKd

[[record]]
monomer_sequence = "ALYSYASAK"
study_system = "HLA-A*03:01"
value_measured = 7.40


Data provenance is the Immune Epitope Database (IEDB).
